Assay: Inhibition of HCMV replication, plaque reduction assay (PRA, Hs-68 cells)
Format: cell-based, Human Cytomegalovirus (HCMV)
Details: human, Group 2 Table 1 entries, read-out: Cytotoxic at this concentration (footnote *, PRA CMV)
Method: C) Inhibition of Human Cytomegalovirus (HCMV) Replication The effect of compounds on the replication of HCMV has been measured by using an ELISA-based assay (ELISA) and a plaque reduction assay (PRA). […] The medium was removed from the cells by aspiration. […] Microscopic plaques were counted using a stereomicroscope. Drug effects were calculated as a percent reduction in the number of plaques in the presence of each drug concentration compared to the number observed in the absence of drug. […]
MEASURED_QUANTITY: MCC at 192 h

>  <SMILES_REPR>
Nc1nc(-c2ccc(NC(=O)NCCc3ccc(F)cc3)cc2)cs1

>  <MCC at 192 h>
5 µM

$$$$
>  <SMILES_REPR>
Nc1nc(-c2ccc(NC(=O)NCc3ccccc3F)cc2)cs1

>  <MCC at 192 h>
4 µM

$$$$
>  <SMILES_REPR>
Nc1nc(-c2ccc(NC(=O)NCCc3ccccn3)cc2)cs1

>  <MCC at 192 h>
93 µM

$$$$
>  <SMILES_REPR>
Nc1nc(-c2ccc(NC(=O)NCc3cccc(F)c3)cc2)cs1

>  <MCC at 192 h>
8 µM

$$$$

The molecule listed as CN(C)c1ccc(CNC(=O)Nc2ccc(-c3csc(N)n3)cc2)cc1 has a reported MCC at 192 h of 18 µM

The molecule listed as C[C@H](NC(=O)Nc1ccc(-c2csc(N)n2)cc1)c1ccccc1 has a reported MCC at 192 h of 74 µM

The molecule listed as Nc1nc(-c2ccc(NC(=O)NCCN(Cc3ccccc3)Cc3ccccc3)cc2)cs1 has a reported MCC at 192 h of 5 µM

The molecule listed as Nc1nc(-c2ccc(NC(=O)NCc3ccc(Cl)cc3)cc2)cs1 has a reported MCC at 192 h of 1 µM

The molecule listed as Nc1nc(-c2ccc(NC(=O)NCCCn3ccnc3)cc2)cs1 has a reported MCC at 192 h of 48 µM

The molecule listed as Nc1nc(-c2ccc(NC(=O)NCc3ccccc3)cc2)cs1 has a reported MCC at 192 h of 45 µM

###

System: HSV-1 strain F or KOS
Assay: Inhibition of herpes simplex virus (HSV-1) replication in cell culture (BHK-21 cells, glycoprotein C ELISA)
Assay type: cell-based
Conditions: Human alphaherpesvirus 1, BHK-21, Group 1 Table 1 entries
MEASURED_QUANTITY: EC50 (nM)
// return numeric value only (unit: nM, not printed)

These solved cases illustrate the format of a correct answer.
>  <SMILES_REPR>
Nc1nc(-c2ccc(NC(=O)CNCc3ccccc3)cc2)cs1

>  <MEASURED_QUANTITY>
EC50

>  <RESULT>
2700

$$$$
>  <SMILES_REPR>
Cc1cccc(C)c1CN(CC(=O)Nc1ccc(-c2csc(N)n2)cc1)C(=O)c1ccncc1

>  <MEASURED_QUANTITY>
EC50

>  <RESULT>
420

$$$$
>  <SMILES_REPR>
CN(CC(=O)Nc1ccc(-c2csc(N)n2)cc1)Cc1ccccc1

>  <MEASURED_QUANTITY>
EC50

>  <RESULT>
950

$$$$

The molecule listed as CN(C)CCN(CC(=O)Nc1ccc(-c2csc(N)n2)cc1)C(=O)C1CCCCC1 has a reported EC50 of 9200

The molecule listed as Nc1nc(-c2ccc(NC(=O)CN(Cc3cccc(F)c3)Cc3cccc(F)c3)cc2)cs1 has a reported EC50 of 100

The molecule listed as Nc1nc(-c2ccc(NC(=O)CN(Cc3ccccc3)C(=O)c3cccnc3)cc2)cs1 has a reported EC50 of 130

The molecule listed as CC(C)(C)OC(=O)N(CC(=O)Nc1ccc(-c2csc(N)n2)cc1)CC1CCCCC1 has a reported EC50 of 850

The molecule listed as CN(C)c1cccc2c(S(=O)(=O)N(CC(=O)Nc3ccc(-c4csc(N)n4)cc3)Cc3ccccc3)cccc12 has a reported EC50 of 2100
